# tgt: firefly luciferase (denatured) (firefly, UniProt P08659 1-550 = luciferase)
# Sequence (P08659 whole entry): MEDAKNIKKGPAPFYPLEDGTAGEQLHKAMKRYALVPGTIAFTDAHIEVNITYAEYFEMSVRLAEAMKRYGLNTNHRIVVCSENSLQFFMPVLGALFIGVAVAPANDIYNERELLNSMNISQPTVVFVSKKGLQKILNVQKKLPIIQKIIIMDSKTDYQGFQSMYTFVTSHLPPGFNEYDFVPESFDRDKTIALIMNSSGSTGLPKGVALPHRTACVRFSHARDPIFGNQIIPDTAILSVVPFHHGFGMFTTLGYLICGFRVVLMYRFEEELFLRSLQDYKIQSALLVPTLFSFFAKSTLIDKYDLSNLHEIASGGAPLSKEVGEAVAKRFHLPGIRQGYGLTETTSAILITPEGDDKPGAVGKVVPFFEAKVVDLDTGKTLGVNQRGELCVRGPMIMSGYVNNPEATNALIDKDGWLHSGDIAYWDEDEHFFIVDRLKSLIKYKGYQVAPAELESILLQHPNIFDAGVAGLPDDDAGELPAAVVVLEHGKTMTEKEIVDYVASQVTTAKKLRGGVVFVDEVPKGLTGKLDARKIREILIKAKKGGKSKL
# assay text: ELISA
parameter: binding result

[
  {
    "binder": "Sis1-[change] (natural protein) MVKETKLYDLLGVSPSANEQELKKGYRKAALKYHPDKPTGDTEKFKEISEAFKILNDPQKREIYDQYGLEAARSGGPSFGPGGPGGAGGAGGFPGGAGGFSGGHAFSNEDAFNIFSQFFGGSSPFGGADDSGFSFSSYPSGGGAGMGGMPGGMGGMHGGMGGMPGGFRSASSSPTYPEEETVQVNLPVSLEDLFVGKKKSFKIGRKGPHGASEKTQIDIQLKPGWKAGTKITYKNQGDYNPQTGRRKTLQFVIQEKSHPNFKRDGDDLIYTLPLSFKESLLGFSKTIQTIDGRTLPLSRVQPVQPSQTSTYPGQGMPTPKNPSQRGNLIVKYKVDYPISLNDAQKRAIDENF",
    "parameter": "binding result",
    "observed measurement": "binds"
  },
  {
    "binder": "Sis1-[change] (natural protein) MVKETKLYDLLGVSPSANEQELKKGYRKAALKYHPDKPTGDTEKFKEIVEAFEILNDPQKREIYDQYGLEAARSGGPSFGPGGPGGAGGAGGFPGGAGGFSGGHAFSNEDAFNIFSQFFGGSSPFGGADDSGFSFSSYPSGGGAGMGGMPGGMGGMHGGMGGMPGGFRSASSSPTYPEEETVQVNLPVSLEDLFVGKKKSFKIGRKGPHGASEKTQIDIQLKPGWKAGTKITYKNQGDYNPQTGRRKTLQFVIQEKSHPNFKRDGDDLIYTLPLSFKESLLGFSKTIQTIDGRTLPLSRVQPVQPSQTSTYPGQGMPTPKNPSQRGNLIVKYKVDYPISLNDAQKRAIDENF",
    "parameter": "binding result",
    "observed measurement": "binds"
  },
  {
    "binder": "Sis1-[change] (natural protein) MVKETKLYDLLGVSPSANEQELKKGYRKAALKYHPDKPTGDTEKFKEISEAFAILNDPQKREIYDQYGLEAARSGGPSFGPGGPGGAGGAGGFPGGAGGFSGGHAFSNEDAFNIFSQFFGGSSPFGGADDSGFSFSSYPSGGGAGMGGMPGGMGGMHGGMGGMPGGFRSASSSPTYPEEETVQVNLPVSLEDLFVGKKKSFKIGRKGPHGASEKTQIDIQLKPGWKAGTKITYKNQGDYNPQTGRRKTLQFVIQEKSHPNFKRDGDDLIYTLPLSFKESLLGFSKTIQTIDGRTLPLSRVQPVQPSQTSTYPGQGMPTPKNPSQRGNLIVKYKVDYPISLNDAQKRAIDENF",
    "parameter": "binding result",
    "observed measurement": "binds"
  }
]
